Biological target: hGPR65 (Homo sapiens)
Construct: expressed in transfected cells; host or cells: HeLa (ATCC CCL-2), lentiviral transduction, pLX317
Sequence (Q8IYL9 whole entry): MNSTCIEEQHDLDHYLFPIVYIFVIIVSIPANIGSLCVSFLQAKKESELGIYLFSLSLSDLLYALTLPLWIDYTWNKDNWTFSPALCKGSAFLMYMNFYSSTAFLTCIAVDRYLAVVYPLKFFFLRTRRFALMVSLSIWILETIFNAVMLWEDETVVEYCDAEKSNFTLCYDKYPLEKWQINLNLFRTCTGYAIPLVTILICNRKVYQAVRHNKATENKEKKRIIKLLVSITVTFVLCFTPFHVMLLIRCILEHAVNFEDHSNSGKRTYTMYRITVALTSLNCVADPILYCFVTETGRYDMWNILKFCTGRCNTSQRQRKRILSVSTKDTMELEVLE
Test: cAMP detection in HeLa expression cell line, hGPR65
Type: cell-based
Conditions: HeLa, 1st hGPR column pair; relative to 100uM forskolin (100%) and DMSO (0%); NA = no activity; read-out: hGPR Max Activity %
Experimental endpoint: Emax (%)
Give just the numeric value; % need not be written.

Cc1ccc(NC(=O)c2cnn3c(O)cc(-c4ccc(-c5ccccc5O)cc4)nc23)cc1 [BRD1689] : 79

// query Quick check: Emax of Cc1ccc(NC(=O)c2cnn3c(O)cc(-c4ccc(N5CCN(C)CC5)nc4)nc23)cc1 [BRD5070] ?
// result 13.4

// query Please report the recorded Emax for COc1ccc(-c2cc(O)n3ncc(C(=O)Nc4ccc(C)cc4)c3n2)cc1 [BRD9965] .
// result 73.8

// query Item under review: CCCc1cc(-c2cc(O)n3ncc(C(=O)Nc4ccccc4)c3n2)no1 [BRD0124] . Reported Emax?
// result 62.1
